Please respond with reported pIC50 for every item in the list.
TGT: LMP7 (purified human immuno proteasome) (Homo sapiens)
ASSAY_REMARKS: Determination of LMP7 activity (fluorescence intensity assay, Suc-LLVY-AMC)
Format: biochemical
ASSAY_CONDITIONS: purified human immuno proteasome 0.5 nM, 40 μM Suc-LLVY-AMC, 37° C.
pIC50: −log10 of the molar value.

Note to self: pIC50 recorded for O=C(CCn1cc(-c2ccccc2)nn1)N[C@@H](Cc1csc2ccccc12)B(O)O was > 7.30

Note to self: pIC50 recorded for CC(CC(=O)c1ccccc1)C(=O)N[C@@H](Cc1ccsc1)B(O)O (mixture of isomers) was 5.30 to 6.30

Note to self: pIC50 recorded for O=C(CCc1cn(-c2ccccc2)nn1)N[C@@H](Cc1ccc2ccccc2c1)B(O)O was > 7.30

Note to self: pIC50 recorded for COc1ccc(C(=O)CCC(=O)N[C@@H](Cc2cc(F)cc(OC)c2)B(O)O)cc1 was 6.30 to 7.30

Note to self: pIC50 recorded for O=C(CCc1noc(-c2ccccc2)n1)N[C@@H](Cc1cccc(OC(F)(F)F)c1)B(O)O was 6.30 to 7.30

Note to self: pIC50 recorded for Cc1nc2ccccc2n1CCC(=O)N[C@@H](Cc1ccsc1)B(O)O was > 7.30

Note to self: pIC50 recorded for O=C(CCC(=O)c1ccc(-c2ccccc2)cc1)N[C@@H](Cc1ccsc1)B(O)O was 6.30 to 7.30

Note to self: pIC50 recorded for COc1cc(C[C@H](NC(=O)CCn2cnc3ccccc32)B(O)O)ccc1C was 6.30 to 7.30

Note to self: pIC50 recorded for Cn1ncc2cc(C[C@H](NC(=O)CCn3cc(-c4ccccc4)nn3)B(O)O)ccc21 was > 7.30

Note to self: pIC50 recorded for O=C(CCc1noc(-c2ccccc2)n1)N[C@@H](Cc1cccc(C(F)(F)F)c1)B(O)O was 6.30 to 7.30

Note to self: pIC50 recorded for COc1ccccc1C(=O)CCC(=O)N[C@@H](Cc1ccsc1)B(O)O was 5.30 to 6.30

Note to self: pIC50 recorded for CCc1cccc(C[C@H](NC(=O)CCn2ncc3ccccc32)B(O)O)c1 was 6.30 to 7.30

Note to self: pIC50 recorded for COc1ccc(C[C@H](NC(=O)CCc2noc(-c3ccccc3)n2)B(O)O)cc1C(F)(F)F was 6.30 to 7.30

Note to self: pIC50 recorded for CCc1cccc(C[C@H](NC(=O)CCC(=O)c2ccc3ccccc3c2)B(O)O)c1 was 6.30 to 7.30

Note to self: pIC50 recorded for COc1cc(F)cc(C[C@H](NC(=O)CCn2cc(-c3ccccc3)nn2)B(O)O)c1 was > 7.30

Note to self: pIC50 recorded for O=C(CCn1cnc2ccccc21)N[C@@H](Cc1ccc(OC(F)(F)F)cc1)B(O)O was > 7.30

Note to self: pIC50 recorded for COc1ccc(C(=O)CCC(=O)N[C@@H](Cc2ccsc2)B(O)O)c(OC)c1 was 6.30 to 7.30

Cited source: patent US9688702B2
